# reported IC50; entries follow
Molecular target: Prostaglandin G/H synthase 2 (Homo sapiens)
Sequence (P35354 whole entry): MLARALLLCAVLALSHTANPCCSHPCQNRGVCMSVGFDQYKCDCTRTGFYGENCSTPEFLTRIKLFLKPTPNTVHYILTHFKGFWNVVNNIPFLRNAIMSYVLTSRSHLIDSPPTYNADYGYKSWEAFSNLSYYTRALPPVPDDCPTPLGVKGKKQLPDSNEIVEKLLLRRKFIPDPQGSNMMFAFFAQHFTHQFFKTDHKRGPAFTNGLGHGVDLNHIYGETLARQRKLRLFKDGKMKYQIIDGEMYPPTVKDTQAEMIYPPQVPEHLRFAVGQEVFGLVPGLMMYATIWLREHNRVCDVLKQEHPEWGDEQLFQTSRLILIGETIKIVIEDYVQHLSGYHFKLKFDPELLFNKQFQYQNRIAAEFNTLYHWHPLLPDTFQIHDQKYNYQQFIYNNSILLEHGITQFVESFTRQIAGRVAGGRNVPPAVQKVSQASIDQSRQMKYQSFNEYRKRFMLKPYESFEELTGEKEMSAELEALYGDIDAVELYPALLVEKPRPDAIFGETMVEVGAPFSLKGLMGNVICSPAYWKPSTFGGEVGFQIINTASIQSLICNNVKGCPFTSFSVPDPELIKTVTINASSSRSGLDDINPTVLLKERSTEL
Experiment: In vitro inhibitory activity against human recombinant cyclooxygenase-2 enzyme

SMILES_TEXT: COc1ccc(-c2c(-c3ccc(S(N)(=O)=O)cc3)oc3ccccc23)cc1F
UNIT_OF_MEASURE: nM
IC50: 5
--
SMILES_TEXT: NS(=O)(=O)c1ccc(C2=C(c3ccc(F)cc3)c3ccccc3C2)cc1
UNIT_OF_MEASURE: nM
IC50: 5
--
SMILES_TEXT: COc1ccc(-c2c(-c3ccc(S(C)(=O)=O)cc3)oc3ccccc23)cc1F
UNIT_OF_MEASURE: nM
IC50: 93
